# system.under.test: PD-L1 (human)
# Sequence (chain, as listed by the source): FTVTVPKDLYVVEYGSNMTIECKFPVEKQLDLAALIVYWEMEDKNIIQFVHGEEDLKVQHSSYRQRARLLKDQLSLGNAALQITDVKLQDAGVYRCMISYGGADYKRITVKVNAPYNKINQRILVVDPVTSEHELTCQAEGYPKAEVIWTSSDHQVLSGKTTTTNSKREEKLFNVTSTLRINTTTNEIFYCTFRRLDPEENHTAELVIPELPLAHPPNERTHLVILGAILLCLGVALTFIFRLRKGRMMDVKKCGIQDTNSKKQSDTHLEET
# assay.name: flow cytometry, cells expressing PD-L1
property.measured: MFI (MFI)
The reply should be a number in MFI, with the unit left off.

[[record]]
binder = "variant CD80 K54M/L70Q/A91G/Y164H (Fc fusion) VIHVTKEVKEVATLSCGHNVSVEELAQTRIYWQKEKKMVLTMMSGDMNIWPEYMNRTIFDITNNLSIVIQALRPSDEGTYECVVLKYEKDGFKREHLAEVTLSVKADFPTPSISDFEIPTSNIRRIICSTSGGFPEPHLSWLENGEELNAINTTVSQDPETELHAVSSKLDFNMTTNHSFMCLIKYGHLRVNQTFNWNTTKQEHFPDN"
result_value = 5


Prompt: Tell me its MFI given variant CD80 E24G/R29D/Y31L/Q33H/K36G/M38I/T41A/M43R/M47T/F59L/E81V/L85R/K89N/A91T/F92P/K93V/R94L/H96R/N149S/C182S (Fc fusion) VIHVTKEVKEVATLSCGHNVSVEGLAQTDILWHKEGKIVLAMRSGDTNIWPEYKNRTILDITNNLSIVILALRPSDEGTYVCVVRKYENDTPVLERLAEVTLSVKADFPTPSISDFEIPTSNIRRIICSTSGGFPEPHLSWLENGEELSAINTTVSQDPETELYAVSSKLDFNMTTNHSFMSLIKYGHLRVNQTFNWNTTKQEHFPDN as the entry.
Response: 1120
